procedure-text: Microemulsion formulation: NMDP solubility and droplet size
Assay type: physicochemical
condition-summary: aqueous with cosolvent or surfactant or cyclodextrin, 8% Labrafil M 1944CS, 30% Cremophor RH 40/ethanol (3:1) and water

{"compound": "COCCOC(=O)C1=C(C)NC(C)=C(C(=O)OC(C)C)C1c1cccc([N+](=O)[O-])c1 (stereo not shown) [NMDP, nimodipine]", "solubility": "≤ 6400 µg/mL"}

====

procedure-text: Pharmacokinetics after intranasal administration, blood samples, NMDP by HPLC
Format: in vivo
condition-summary: human, plasma, inhaled or intranasal; microemulsion, single intranasal administration, 2 mg/kg; read-out: absolute bioavailability

{"compound": "COCCOC(=O)C1=C(C)NC(C)=C(C(=O)OC(C)C)C1c1cccc([N+](=O)[O-])c1 (stereo not shown)", "bioavailability": "~32%"}
